Tested on: HSV-1 Strain F
Test: Viral qPCR assay, HSV-1 in Vero cells
Type: cell-based, Herpes Simplex Virus type 1
Conditions: ~72 hrs, read-out: HSV1 VERO Cell (EC50)
pEC50: −log10 of the molar value.
pEC50 for assorted compounds
readoutName: pEC50

* CC1c2c(c(C(=O)NCc3ccc(Cl)cc3)nn2C)CN1C[C@@H]1CCC(=O)N1 (stereo partly shown) [Compound 101] | 4.54
* Cn1nc(C(=O)NCc2ccc(Cl)cc2)c2c1CC(C[C@H]1CCC(=O)N1)C2 (single isomer, unassigned) [Compound 129] | 6.58
* CC1c2c(c(C(=O)NCc3ccc(Cl)cc3)nn2C)CN1C[C@H]1CCC(=O)N1 (single isomer, unassigned) [Compound 107] | 4.13
* Cn1nc(C(=O)NCc2ccc(Cl)cc2)c2c1CC(O)(C[C@H]1CCC(=O)N1)C2 (stereo partly shown) [Compound 139] | 4.00
* C[C@@H]1c2c(C(=O)NCc3ccc(Cl)cc3)nn(C)c2CN1C[C@H]1CCC(=O)N1 [Compound 125] | 5.30
* CC(C1CC(F)(F)C(=O)N1)N1Cc2c(C(=O)NCc3ccc(Cl)cc3)nn(C)c2C1 (stereo not shown) [Compound 86] | 5.77
* CC(C)N1CC(n2nc(C(=O)NCc3ccc(Cl)cc3)c3c2CC(C[C@H]2CCC(=O)N2)C3)C1 (stereo partly shown) [Compound 134] | 6.00

====

Below are pIC50 values recorded for Human cytomegalovirus DNA polymerase (Human cytomegalovirus, UniProt P08546).
pIC50: −log10 of the molar value.
readoutName: pIC50

• Cn1nc(C(=O)NCc2ccc(Cl)cc2)c2c1C(CO)N(C[C@H]1CCC(=O)N1)C2 (stereo partly shown) [Compound 122] = 6.71
• O=C1CC[C@H](CN2Cc3c(C(=O)NCc4ccc(Cl)cc4)nn(-c4ncc5ccccc5n4)c3C2)N1 = 7.15
• O=C(NCc1ccc(Cl)cc1)c1nn(CCNC(=O)C2CCC2)c2c1CN(Cc1ccncc1F)C2 = 6.76
• Cn1nc(C(=O)NCc2ccc(Cl)cc2)c2c1CN(CC1CCC(=O)N1)C2 (stereo not shown) = 4.88

====

Target: Human cytomegalovirus DNA polymerase (Human cytomegalovirus, UniProt P08546)
Construct: made in house; host or cells: SF21 insect cells (baculovirus vector)
Sequence (P08546 whole entry): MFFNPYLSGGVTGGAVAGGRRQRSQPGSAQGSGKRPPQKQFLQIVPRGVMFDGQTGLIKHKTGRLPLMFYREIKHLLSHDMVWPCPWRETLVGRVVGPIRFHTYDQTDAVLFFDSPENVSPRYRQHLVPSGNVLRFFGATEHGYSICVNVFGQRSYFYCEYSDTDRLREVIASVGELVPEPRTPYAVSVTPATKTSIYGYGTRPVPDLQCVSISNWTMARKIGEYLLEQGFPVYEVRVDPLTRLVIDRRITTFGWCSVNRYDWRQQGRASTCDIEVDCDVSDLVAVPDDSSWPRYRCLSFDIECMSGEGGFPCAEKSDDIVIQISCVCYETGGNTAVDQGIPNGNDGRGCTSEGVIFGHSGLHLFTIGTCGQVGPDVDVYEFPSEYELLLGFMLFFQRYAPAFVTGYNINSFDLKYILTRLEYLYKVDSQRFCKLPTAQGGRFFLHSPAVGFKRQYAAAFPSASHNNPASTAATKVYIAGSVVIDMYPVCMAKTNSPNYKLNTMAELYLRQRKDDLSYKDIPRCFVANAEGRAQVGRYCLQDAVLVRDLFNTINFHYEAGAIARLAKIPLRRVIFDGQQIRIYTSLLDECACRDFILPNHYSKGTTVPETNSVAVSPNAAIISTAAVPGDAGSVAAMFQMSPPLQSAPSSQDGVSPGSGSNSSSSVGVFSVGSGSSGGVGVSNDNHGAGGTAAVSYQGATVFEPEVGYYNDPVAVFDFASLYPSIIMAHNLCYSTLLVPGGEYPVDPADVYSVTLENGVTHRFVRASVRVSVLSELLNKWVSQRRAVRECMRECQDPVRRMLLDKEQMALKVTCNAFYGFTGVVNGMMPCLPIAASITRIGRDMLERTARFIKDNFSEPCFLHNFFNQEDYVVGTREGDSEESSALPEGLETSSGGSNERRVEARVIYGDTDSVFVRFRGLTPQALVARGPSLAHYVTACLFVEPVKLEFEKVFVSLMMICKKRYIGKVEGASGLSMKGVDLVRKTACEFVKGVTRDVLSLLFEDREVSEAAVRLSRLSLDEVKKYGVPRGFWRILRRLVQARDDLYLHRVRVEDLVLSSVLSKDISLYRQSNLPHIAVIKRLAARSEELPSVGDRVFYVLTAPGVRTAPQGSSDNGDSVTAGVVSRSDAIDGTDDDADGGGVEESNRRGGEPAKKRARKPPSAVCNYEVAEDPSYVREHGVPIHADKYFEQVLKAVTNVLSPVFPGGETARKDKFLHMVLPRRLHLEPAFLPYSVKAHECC
Assay: HCMV polymerase assay (AlphaLISA)
Assay type: biochemical
Conditions: HCMV DNA polymerase 0.2 nM, 60 minutes at 37° C.; read-out: CMV (IC50)
IC50 for assorted compounds
readoutName: IC50 (nM)

* CC(C)[C@@H]1c2c(c(C(=O)NCc3ccc(Cl)cc3)nn2C)CN1C[C@@H]1CCC(=O)N1 [Compound 114] | 77.6
* CCC(C1CCC(=O)N1)N1Cc2c(C(=O)NCc3ccc(Cl)cc3)nn(C)c2C1 (stereo not shown) [Compound 90] | 31.7
* CC(C1CCC(=O)N1)N1Cc2c(C(=O)NCc3ccc(Cl)cc3)nn(C)c2C1 (single isomer, unassigned) [Compound 1] | 235
* Cn1nc(C(=O)NCc2ccc(Cl)cc2)c2c1CC(O)(CC1CCC(=O)N1)C2 (single isomer, unassigned) [Compound 140] | 63.2

====

Target: Human cytomegalovirus DNA polymerase (Human cytomegalovirus)
readoutName: IC50

• O=C1CC[C@H](CC2Cc3c(C(=O)NCc4ccc(Cl)cc4)nn(CCN4CCOCC4)c3C2)N1 (stereo partly shown) = 85.8 nM
• O=C(NCc1ccc(Cl)cc1)c1nn(CCNC(=O)C2CCC2)c2c1CN(Cc1ccncc1Cl)C2 = 1710 nM
• CC(C1CC(F)C(=O)N1)N1Cc2c(C(=O)NCc3ccc(Cl)cc3)nn(C)c2C1 (stereo not shown) [Compound 76] = 30 nM
• O=C1CC[C@@H](CN2Cc3c(C(=O)NCc4ccc(Cl)cc4)nn(C4CCOC4)c3C2)N1 (single isomer, unassigned) [Compound 43] = 58.2 nM
• CC(C)C(O)Cn1nc(C(=O)NCc2ccc(Cl)cc2)c2c1CN(C[C@H]1CCC(=O)N1)C2 (stereo partly shown) = 129 nM
• O=C1CC[C@@H](CN2Cc3c(C(=O)NCc4ccc(Cl)cc4)nn(-c4nccs4)c3C2)N1 = 25.9 nM
• CC(C)[C@H]1c2c(c(C(=O)NCc3ccc(Cl)cc3)nn2C)CN1C(C)C1CCC(=O)N1 (single isomer, unassigned) [Compound 116] = 10900 nM

====

Biological target: Human cytomegalovirus DNA polymerase (Human cytomegalovirus)
Construct: made in house; host or cells: SF21 insect cells (baculovirus vector)
Test: HCMV polymerase assay (AlphaLISA)
Type: biochemical
Details: HCMV DNA polymerase 0.2 nM, 60 minutes at 37° C.; read-out: CMV (IC50)
pIC50: −log10 of the molar value.
Please note: t applies when pIC50 is 7 or greater, and f applies otherwise.

• O=C1CC[C@H](CN2Cc3c(C(=O)NCc4ccc(Cl)cc4)nn(-c4cnsn4)c3C2)N1 [Compound 22] = t
• O=C1CC[C@H](CN2Cc3c(C(=O)NCc4ccc(Cl)cc4)nn(-c4nc(-c5ccccc5)cs4)c3C2)N1 [Compound 15] = t
• Cn1nc(C(=O)NCc2ccc(Cl)cc2)c2c1CN(C[C@H]1CC(F)(F)C(=O)N1)C2 [Compound 81] = f
• CC(C1CC(F)(F)C(=O)N1)N1Cc2c(C(=O)NCc3ccc(Cl)cc3)nn(C)c2C1 (single isomer, unassigned) [Compound 83] = f
• CC([C@@H]1CCC(=O)N1)N1Cc2c(C(=O)NCc3ccc(Cl)cc3)nn(C(F)F)c2C1 (some centres unmarked) [Compound 72] = f
• CC(C)C(=O)NCCn1nc(C(=O)NCc2ccc(Cl)cc2)c2c1CN(C[C@H]1CCC(=O)N1)C2 [Compound 25] = t
• CC(C)[C@H]1c2c(c(C(=O)NCc3ccc(Cl)cc3)nn2C)CN1C[C@@H]1CCC(=O)N1 [Compound 100] = t
• CC(C)[C@H]1c2c(c(C(=O)NCc3ccc(Cl)cc3)nn2C)CN1C(C)C1CCC(=O)N1 (single isomer, unassigned) [Compound 117] = f

====

Test system: VZV
Test: Viral qPCR assay, VZV in MRC5 cells
Type: cell-based, varicella zoster virus
Conditions: Human alphaherpesvirus 3, MRC5, 72 h, read-out: VZV MRC5 Cell (IC50)
pIC50: −log10 of the molar value.
pIC50 for assorted compounds
readoutName: pIC50

- Cn1nc(C(=O)NCc2ccc(Cl)c(F)c2)c2c1CN(C[C@H]1CCC(=O)N1)C2: 5.23
- Cn1ccnc1-n1nc(C(=O)NCc2ccc(Cl)cc2)c2c1CN(C[C@H]1CCC(=O)N1)C2: 6.51
- Cn1nc(C(=O)NCc2ccc(Cl)cc2)c2c1CN(C[C@H]1CC(F)C(=O)N1)C2 (stereo partly shown): 5.54
- CCOc1cnc(-n2nc(C(=O)NCc3ccc(Cl)cc3)c3c2CN(C[C@H]2CCC(=O)N2)C3)nc1: 6.68

====

pIC50: −log10 of the molar value.
Below are pIC50 values recorded for Human cytomegalovirus DNA polymerase (Human cytomegalovirus, UniProt P08546).
readoutName: pIC50

- CC(C1CC(F)(F)C(=O)N1)N1Cc2c(C(=O)NCc3ccc(Cl)cc3)nn(C)c2C1 (stereo not shown) [Compound 84]: 4.88
- Cn1nc(C(=O)NCc2ccc(Cl)cc2)c2c1CC(CC1CCC(=O)N1)C2 (single isomer, unassigned) [Compound 130]: 8.35
- CCC(C1CCC(=O)N1)N1Cc2c(C(=O)NCc3ccc(Cl)cc3)nn(C)c2C1 (stereo not shown) [Compound 92]: 5.93
- CC(=O)OCC1c2c(c(C(=O)NCc3ccc(Cl)cc3)nn2C)CN1C[C@H]1CCC(=O)N1 (single isomer, unassigned): 5.11
- Cc1nc(-n2nc(C(=O)NCc3ccc(Cl)cc3)c3c2CN(C[C@H]2CCC(=O)N2)C3)sc1C: 7.68
- O=C1CC[C@@H](CN2Cc3c(C(=O)NCc4ccc(Cl)cc4)nn(C4CCC(F)(F)C4)c3C2)N1 (single isomer, unassigned) [Compound 55]: 7.03
- Cc1csc(-n2nc(C(=O)NCc3ccc(Cl)cc3)c3c2CN(C[C@H]2CCC(=O)N2)C3)n1: 7.64

====

Tested on: HSV-1 Strain F
Experiment: Viral qPCR assay, HSV-1 in MRC5 cells
Format: cell-based, Herpes Simplex Virus type 1
Details: Human alphaherpesvirus 1, MRC5, 72 h, read-out: HSV1 MRC5 Cell (EC50)
readoutName: EC50 (nM)

- O=C1CC[C@H](CN2Cc3c(C(=O)NCc4ccc(Cl)cc4)nn(-c4ncco4)c3C2)N1: 224
- Cn1nc(C(=O)NCc2ccc(Cl)cc2)c2c1CN(C[C@H]1CCC(=O)N1)C2: 653
- Cn1nc(C(=O)NCc2ccc(Cl)cc2)c2c1CN(CC13CC1CC(=O)N3)C2 (stereo not shown): 3300
- Cc1nc(-n2nc(C(=O)NCc3ccc(Cl)cc3)c3c2CN(C[C@H]2CCC(=O)N2)C3)sc1C: 189
- O=C1CC[C@@H](CN2Cc3c(C(=O)NCc4ccc(Cl)cc4)nn(-c4ncccn4)c3C2)N1: 1040
- Cc1cn(C)c(-n2nc(C(=O)NCc3ccc(Cl)cc3)c3c2CN(C[C@H]2CCC(=O)N2)C3)n1: 650
- Cn1nc(C(=O)NCc2ccc(Cl)cc2)c2c1CN(C[C@@H]1CC(F)C(=O)N1)C2 (stereo partly shown): 1180
- O=C1N[C@@H](CN2Cc3c(C(=O)NCc4ccc(Cl)cc4)nn(C(F)F)c3C2)CO1: 79.5
- Cn1nc(C(=O)NCc2ccc(Cl)cc2)c2c1CN(C[C@@H]1CCC(=O)N1)C2: 878
- CC(C)CN1CC(n2nc(C(=O)NCc3ccc(Cl)cc3)c3c2CC(C[C@H]2CCC(=O)N2)C3)C1 (stereo partly shown): 749
- O=C1CC[C@@H](CN2Cc3c(C(=O)NCc4ccc(Cl)cc4)nn(-c4nccs4)c3C2)N1: 996
- O=C1CC[C@@H](CN2Cc3c(C(=O)NCc4ccc(Cl)cc4)nn(C4CCOC4)c3C2)N1 (single isomer, unassigned): 3550
- Cc1cnc(-n2nc(C(=O)NCc3ccc(Cl)cc3)c3c2CN(C[C@H]2CCC(=O)N2)C3)s1: 172
- CC(C)C(=O)NCCn1nc(C(=O)NCc2ccc(Cl)cc2)c2c1CN(C[C@H]1CCC(=O)N1)C2: 17400
- O=C1CC[C@@H](CN2Cc3c(C(=O)NCc4ccc(Cl)cc4)nn(C(F)F)c3C2)N1: 1990
- O=C1CC[C@H](CN2Cc3c(C(=O)NCc4ccc(Cl)cc4)nn(-c4ccccn4)c3C2)N1: 284
- CCOc1cnc(-n2nc(C(=O)NCc3ccc(Cl)cc3)c3c2CN(C[C@H]2CCC(=O)N2)C3)nc1: 233
- Cn1nc(C(=O)NCc2ccc(Cl)cc2)c2c1CN(C[C@@H]1CC(F)(F)C(=O)N1)C2: 2880
- O=C1CC[C@H](CN2Cc3c(C(=O)NCc4ccc(Cl)cc4)nn(-c4ncc5ccccc5n4)c3C2)N1: 229
- CC(C1CC(F)C(=O)N1)N1Cc2c(C(=O)NCc3ccc(Cl)cc3)nn(C)c2C1 (single isomer, unassigned): 614
- Cn1nc(C(=O)NCc2ccc(Cl)cc2)c2c1CN(C[C@H]1CC(F)C(=O)N1)C2 (stereo partly shown): 3030
- O=C1CC[C@H](CC2Cc3c(C(=O)NCc4ccc(Cl)cc4)nn(CCN4CCOCC4)c3C2)N1 (stereo partly shown): 1190
- Cn1ccnc1-n1nc(C(=O)NCc2ccc(Cl)cc2)c2c1CN(C[C@H]1CCC(=O)N1)C2: 449
- Cc1csc(-n2nc(C(=O)NCc3ccc(Cl)cc3)c3c2CN(C[C@H]2CCC(=O)N2)C3)n1: 160
- O=C1CC[C@H](CN2Cc3c(C(=O)NCc4ccc(Cl)cc4)nn(CCn4ccc(Cl)n4)c3C2)N1: 1270
- [2H]C([2H])([2H])n1nc(C(=O)NCc2ccc(Cl)cc2)c2c1CN(C[C@H]1CCC(=O)N1)C2: 7100
- Cn1nc(C(=O)NCc2ccc(Cl)c(F)c2)c2c1CN(C[C@H]1CCC(=O)N1)C2: 8350
- O=C1CC[C@H](CN2Cc3c(C(=O)NCc4ccc(Cl)cc4)nn(-c4nccs4)c3C2)N1: 118

These data points were gathered from patent US20240059693A1.
